B1: VH:VL chains; a variant is named by its letters at X, in order (parent)
chain 1: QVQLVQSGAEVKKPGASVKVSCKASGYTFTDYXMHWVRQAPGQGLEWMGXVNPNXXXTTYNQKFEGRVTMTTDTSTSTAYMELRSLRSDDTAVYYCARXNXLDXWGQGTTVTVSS
chain 2: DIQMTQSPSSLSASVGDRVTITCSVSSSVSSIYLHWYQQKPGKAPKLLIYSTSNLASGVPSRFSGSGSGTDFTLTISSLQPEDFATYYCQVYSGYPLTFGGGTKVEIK

Variants of: B1
protocol-details: yeast display scFab, FACS + sequencing
observation-type: non-specific binding call

- residue-change: "YRRGDSSA"
  non-specific binding call: "binds"
- residue-change: "VRTRSSGV"
  non-specific binding call: "binds"
- residue-change: "DGGKNAVV"
  non-specific binding call: "no binding"
- residue-change: "FRRGDAAV"
  non-specific binding call: "binds"
- residue-change: "FKGRSASY"
  non-specific binding call: "binds"
- residue-change: "SETTDDVA"
  non-specific binding call: "no binding"
- residue-change: "ARAGDYLV"
  non-specific binding call: "no binding"
- residue-change: "DREEGDVV"
  non-specific binding call: "no binding"
- residue-change: "YRAKGAAV"
  non-specific binding call: "binds"
- residue-change: "YRRRGFAA"
  non-specific binding call: "binds"

Using the record for `YRGGDDLY` , report its non-specific binding call.
no binding

Using the record for `DGGTNSSA` , report its non-specific binding call.
no binding

Using the record for `DATGGAGD` , report its non-specific binding call.
no binding

Using the record for `DAGGADAY` , report its non-specific binding call.
no binding

Using the record for `SKGKGAWY` , report its non-specific binding call.
binds

Using the record for `YRRRGAWV` , report its non-specific binding call.
binds

Using the record for `AEERASAF` , report its non-specific binding call.
binds

Using the record for `YRGAGALV` , report its non-specific binding call.
binds

Using the record for `VEGGTDVV` , report its non-specific binding call.
no binding

Using the record for `FRGRDYGY` , report its non-specific binding call.
binds

Using the record for `SEREADWF` , report its non-specific binding call.
no binding

Using the record for `YRAGSASD` , report its non-specific binding call.
binds
